B1: library; numbered along this chain (parent)
chain: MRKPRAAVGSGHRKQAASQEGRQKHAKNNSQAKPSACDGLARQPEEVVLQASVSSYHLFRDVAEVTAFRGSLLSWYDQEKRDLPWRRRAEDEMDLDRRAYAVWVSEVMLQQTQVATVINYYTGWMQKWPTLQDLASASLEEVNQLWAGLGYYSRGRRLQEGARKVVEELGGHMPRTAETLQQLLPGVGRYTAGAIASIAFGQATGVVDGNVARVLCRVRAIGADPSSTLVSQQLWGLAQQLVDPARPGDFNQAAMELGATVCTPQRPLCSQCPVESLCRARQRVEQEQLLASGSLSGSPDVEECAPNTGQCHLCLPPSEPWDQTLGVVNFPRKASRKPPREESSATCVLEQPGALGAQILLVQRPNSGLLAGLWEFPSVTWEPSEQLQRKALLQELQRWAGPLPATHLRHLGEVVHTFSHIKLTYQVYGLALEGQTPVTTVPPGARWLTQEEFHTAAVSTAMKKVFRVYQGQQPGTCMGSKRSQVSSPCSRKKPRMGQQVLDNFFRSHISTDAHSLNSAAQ

variants of: B1; assay: 8OG:A repair function score (normalized; synonymous = 0, nonsense = -1) (normalized log-likelihood score); higher = more repair activity (WT-like); conditions: with 8OG:A DNA repair reporter (GFP) in HEK-293 MUTYH KO cells;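 note: cells sorted at 72 h after reporter transfection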
Result type: 8OG:A repair function score

| Mutation list | Quantitative readout |
| --- | --- |
| P443A | 0.0799 |
| K3M | -0.238 |
| L411S | -0.29 |
| Q388E | -0.368 |
| A457T | -0.533 |
| G150D | -1.38 |
| G444P | -0.189 |
| L109G | -0.659 |
| V107Q | -0.746 |
| A101F | -0.00851 |
| T112L | -1.42 |
| G372F | -0.294 |
| F418E | -0.889 |
| G444F | -0.32 |
| R283Y | -0.0964 |
| T380W | -0.271 |
| L373A | -0.596 |
| L268D | 0.0003 |
| E413M | -0.375 |
| C304P | -0.398 |
| L215Q | -0.871 |
| V206H | -1.02 |
| E106F | -0.995 |
| L257K | -1.22 |
| T511W | -0.0217 |
| A253G | -0.438 |
| Q126D | 0.00176 |
| Q126W | -0.256 |
| G209R | -0.364 |
| A431T | -0.0229 |
| M108Q | -0.453 |
| A345P | -0.334 |
| E350A | -0.188 |
| A194R | -1.1 |
| P225K | -0.284 |
| A115I | -0.0495 |
| N210T | -1.03 |
| C347Y | -0.846 |
| M462A | -0.0163 |
| L40P | 0.00594 |
| R86G | -1.82 |
| T179V | -0.0453 |
| V242I | 0.0144 |
| G372D | -0.324 |
| F376P | -1.02 |
